- Target under test: HIV-1 YU-2 gp120 (HIV-1 (YU-2), UniProt P35961)
- Measurement notes: SPR
Experimental endpoint: pIC50
The scale used: pIC50 is minus the common logarithm of the concentration in molar units.

// recorded pIC50 for Fab m18 Q30A (LCDR1) (Fab, V domains shown) VH: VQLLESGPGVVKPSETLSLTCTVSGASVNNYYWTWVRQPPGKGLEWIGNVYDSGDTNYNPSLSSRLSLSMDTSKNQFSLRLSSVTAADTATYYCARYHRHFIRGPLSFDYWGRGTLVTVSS VL: LQMTQSPSFLSASVGDRVSITCRASQDIAKFLAWYQLTPGDAPKLLMYSASTLQSGVPSRFSGSGSGTEFTLTISGLQPEDFATYYCQHLKRYPYTFGQGTKLEIS : 7.10
